Species: Bos taurus
assay-method-text: Induction of bovine brain tubulin assembly at 1 mg/ml of tubulin concentration
observation-type: ED50 (nM)
State the answer as a number, implicitly in nM.

Solved cases below.
Task: Field request: ED50 | item: CC(=O)O[C@H]1C(=O)[C@@]2(C)[C@H]([C@H](OC(=O)c3ccccc3)[C@]3(O)C[C@H](OC(=O)[C@H](O)[C@@H](NC(=O)c4ccccc4)c4ccccc4)C(C)=C1C3(C)C)[C@]1(OC(C)=O)CO[C@@H]1C[C@@H]2O
Output: 950

Task: Could you tell me which ED50 is on file for CCCCCC(=O)N[C@@H](c1ccccc1)[C@@H](O)C(=O)O[C@H]1C[C@@]2(O)[C@@H](OC(=O)c3ccccc3)[C@@H]3[C@]4(OC(C)=O)CO[C@@H]4C[C@H](O)[C@@]3(C)C(=O)[C@H](O)C(=C1C)C2(C)C ?
Output: 2960

Task: // ED50 lookup, key: C/C=C(\C)C(=O)N[C@@H](c1ccccc1)[C@@H](O)C(=O)O[C@H]1C[C@@]2(O)[C@@H](OC(=O)c3ccccc3)[C@@H]3[C@]4(OC(C)=O)CO[C@@H]4C[C@H](O)[C@@]3(C)C(=O)[C@H](OC(C)=O)C(=C1C)C2(C)C
Output: 850

Task: Which ED50 value is on record for CCCC(=O)N[C@@H](c1ccccc1)[C@@H](O)C(=O)O[C@H]1C[C@@]2(O)[C@@H](OC(=O)c3ccccc3)[C@@H]3[C@]4(OC(C)=O)CO[C@@H]4C[C@H](O)[C@@]3(C)C(=O)[C@H](OC(C)=O)C(=C1C)C2(C)C ?
Output: 2350

Task: # input molecule: CCCCCC(=O)N(C)[C@@H](c1ccccc1)[C@@H](O)C(=O)O[C@H]1C[C@@]2(O)[C@@H](OC(=O)c3ccccc3)[C@@H]3[C@]4(OC(C)=O)CO[C@@H]4C[C@H](O)[C@@]3(C)C(=O)[C@H](OC(C)=O)C(=C1C)C2(C)C ; wanted: its ED50
Output: 1910

***
Task: Entry under review: CCCCCC(=O)N[C@@H](c1ccccc1)[C@@H](O)C(=O)O[C@H]1C[C@@]2(O)[C@@H](OC(=O)c3ccccc3)[C@@H]3[C@]4(OC(C)=O)CO[C@@H]4C[C@H](O)[C@@]3(C)C(=O)[C@H](OC(C)=O)C(=C1C)C2(C)C . Reported ED50?
Output: 1000
